# ASSAY OVERVIEW: small-molecule binders of probe aNOTCH2, primary screen, biochemical, small-molecule microarray, 635/667 nm fluorescence (AID 1121);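 also: score merges feature fluorescence read at 667 nm with its signal to noise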
# CONDITION SUMMARY: higher = more signal
Below is a list of entries, each paired with its recorded composite z-score value.
Quick one: just the number, no unit, thanks!

Please review the entries below; each comes with its answer.
[[record]]
molecule = "Cc1cc2c(nc1C)CCCN2CC(C)ON=C[C@@H](C)[C@H](OCc1ccccc1)C(C)C (some centres undefined)"
endpoint_name = "composite z-score"
experimental_value = -0.0596

[[record]]
molecule = "C#CCCCON=C1C[C@@H](O)[C@@H](O)[C@@H]2[C@@H]3C(=O)N(C4CCCCC4)C(=O)[C@@H]3CC[C@H]12"
endpoint_name = "composite z-score"
experimental_value = -0.11

[[record]]
molecule = "CC(C)=NOC[C@@H](O)COCc1ccco1"
endpoint_name = "composite z-score"
experimental_value = -0.132


### Prompt Report composite z-score for COC(=O)[C@H](C)NC(=O)CCC1CC(OC(=O)NCCc2ccc(F)cc2)CC2(CCCC(COC(=O)NCCCN3CCCC3=O)O2)O1 (some centres undefined)
### Response 0.666
